- System: Jurkat T cells
- measurementDescription: Cell death in Jurkat T cells
- Assay type: cell-based
- cond: Homo sapiens, cell death at 24 h
pEC50: −log10 of the molar value.
reportedEndpoint: pEC50

- CN1C(=O)CN=C(c2ccccc2)c2cc(Cl)ccc21 [Dz, diazepam]: 3.77

====

# EC50 listing for each entry below
- targetOrTestSystem: bovine F1Fo-ATPase (Bos taurus)
- Construct: bovine F1Fo-ATPase present in submitochondrial particles (SMPs); from tissue
- measurementDescription: ATP synthesis by F1Fo-ATPase in bovine submitochondrial particles (SMPs)
- Format: biochemical
- cond: read-out: ATPase activity EC50, Synthesis
reportedEndpoint: EC50 (µM)

- CN1C(=O)CN=C(c2ccc(Cl)cc2)c2cc(Cl)ccc21 [Compound 4-Cl-Dz, 4-chlorodiazepam]: 210
- CN1C(=O)C(Cc2ccc3ccccc3c2)N=C(c2ccc(O)cc2)c2cc(Cl)ccc21 (stereo not drawn) [Bz-423]: 5.5
- O=C1CN=C(c2ccccc2Cl)c2cc([N+](=O)[O-])ccc2N1 [Cz, clonazepam]: 120

====

- targetOrTestSystem: bovine F1Fo-ATPase (Bos taurus, UniProt P13621)
- Construct: bovine F1Fo-ATPase present in submitochondrial particles (SMPs); from tissue
- measurementDescription: ATP synthesis by F1Fo-ATPase in bovine submitochondrial particles (SMPs)
- Format: biochemical
- cond: ATPase activity EC50, Synthesis
reportedEndpoint: EC50 (µM)

* CN1C(=O)CN=C(c2ccccc2)c2cc(Cl)ccc21 | 210
